tgt: Fuc(a1-2)[GalNAc(a1-3)]Gal(b1-4)[Fuc(a1-3)]GlcNAc(b1-3)GalNAc
assay.details: glycan array binding signal (z-score within array); higher = stronger binding
assay.setup: glycan notation: IUPAC condensed, linker removed
This excerpt belongs to a sample that is enriched for the strongest signals.
For each entry below, report its glycan array binding signal (z-score) value.
No unit in the answer, please; the number alone is enough.

# get_value(readout='glycan array binding signal (z-score)', item= Epa19 (Candida glabrata) (protein) MGSSHHHHHHSSGLVPRGSHMASSKDPTRFPIGCSPQVLKTQPGLAVKLYSYGHPVPGCSYITYQYPDFPRSGYKKERKLADITGVNGKIDIDLKPNDPCRVLTGHLPSNYNYPDTLTYTNFTMILYGYFQPKVTGYHTFNLEADDLLFMNLGAGNAFDCCKAESTLDNFGNYQSYSLWGSDYAKANITVFLVSGVYYPIRLFYVNRDNNAVIDFSFTTEFDKEKVHDFTSYFFSASDGEQCPGSV )
1.08

Subsequent entry: Wzz (Escherichia coli) (protein) MRTWKFPSVRVMMRVENNNVSGQNHDPEQIDLIDLLVQLWRGKMTIIISVIVAIVLAIGYLAVAKEKWTSTAIITQPDVGQIAGYNNAMNVIYGQAAPKVSDLQETLIGRFSSAFSALAETLDNQEEPEKLTIEPSVKNQQLPLTVSYVGQTAEGAQMKLAQYIQQVDDKVNQELEKDLKDNIALGRKNLQDSLRTQEVVAQEQKDLRIRQIQEALQYANQAQVTKPQIQQTGEDITQDTLFLLGSEALESMIKHEATRPLVFSSNYYQTRQNLLDIDNLDVDKLDIHAYLYVMKPTLPIRRDSPKKAITLILAVLLGGMVGAGIVLGRNALRNYNAK
0.633
